B1: TPR 5TU (parent)
chain: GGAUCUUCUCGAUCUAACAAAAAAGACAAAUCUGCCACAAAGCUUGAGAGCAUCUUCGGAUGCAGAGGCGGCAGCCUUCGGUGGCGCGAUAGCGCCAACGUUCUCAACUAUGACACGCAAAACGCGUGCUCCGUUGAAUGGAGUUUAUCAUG

Variants of: B1
Assay: polymerase ribozyme fitness, log enrichment relative to wild type (log ratio); higher = more active; in vitro selection for triplet polymerase activity
Variants at the floor of the assay were thinned out.
List of polymerase ribozyme fitness (log ratio) values.
OBSERVED_PROPERTY: polymerase ribozyme fitness (log ratio)

[[record]]
variant = "U6C A39C A66G U90A C93A C99A G100C C103A C116G A147C"
sign_qualifier = "≤"
measurement = -4.2

[[record]]
variant = "G68A C72U"
sign_qualifier = "="
measurement = -4.15

[[record]]
variant = "G34U C95U A107G A110G"
sign_qualifier = "="
measurement = -3.86

[[record]]
variant = "A19U A47C C93U"
sign_qualifier = "="
measurement = -1.1

[[record]]
variant = "U55A C79G G81A"
sign_qualifier = "="
measurement = -4.18

[[record]]
variant = "A3U C8A C18U A47C A49U C93U U102G A107G G133U"
sign_qualifier = "≤"
measurement = -4.2

[[record]]
variant = "U31G A40C G42A G50A C54U C72U G94U"
sign_qualifier = "≤"
measurement = -4.2

[[record]]
variant = "A28U"
sign_qualifier = "="
measurement = -3.38

[[record]]
variant = "C36A U45C C95U C114U A119U"
sign_qualifier = "≤"
measurement = -4.2

[[record]]
variant = "A22U A49G C54U C85U"
sign_qualifier = "="
measurement = -0.721

[[record]]
variant = "U56C U82G"
sign_qualifier = "="
measurement = -0.541

